Test system: Rattus norvegicus
Experiment: Antisecretory activity in rat assessed as inhibition of pentagastrin-stimulated gastric acid secretion at 50 ug/kg, iv relative to PGE2
Type: functional, Stomach
Give measured fold change (FC) for each item. Keep answers brief.
Numbers only.

For orientation, consider the following solved cases.
Structure as smiles	Tested system	fold change (FC)
CCCCC[C@H](O)/C=C/[C@H]1[C@H](O)CC(=O)[C@@H]1C/C=C\CCCC(=O)NC(=O)c1ccccc1	Rattus norvegicus	40
CCCCC[C@H](O)/C=C/[C@H]1[C@H](O)CC(=O)[C@@H]1C/C=C\CCCC(=O)NS(C)(=O)=O	Rattus norvegicus	12
CCCCC[C@H](O)/C=C/[C@H]1[C@H](O)CC(=O)[C@@H]1C/C=C\CCCc1nnn[nH]1	Rattus norvegicus	35
CCCCC[C@H](O)/C=C/[C@H]1[C@H](O)CC(=O)[C@@H]1C/C=C\CCCC(=O)NS(=O)(=O)c1ccccc1	Rattus norvegicus	20
CCCCC[C@H](O)/C=C/[C@H]1[C@H](O)CC(=O)[C@@H]1C/C=C\CCCC(=O)NC(=O)NCC	Rattus norvegicus	0
CCCCC[C@H](O)/C=C/[C@H]1[C@H](O)CC(=O)[C@@H]1C/C=C\CCCC(N)=O	Rattus norvegicus	0
CCCCC[C@H](O)/C=C/[C@H]1[C@H](O)CC(=O)[C@@H]1C/C=C\CCNC(=O)NC(C)=O	Rattus norvegicus	0

Then this compound:
**Query** State, for Rattus norvegicus, measured fold change (FC) of the compound listed here: CCCCC[C@H](O)/C=C/[C@H]1[C@H](O)CC(=O)[C@@H]1C/C=C\CCCC(=O)NC(C)=O
**Result** 160

* * *

Tested on: Cavia porcellus
Experiment: Bronchodilator activity in Reed-Willet guinea pig assessed as inhibition of histamine-induced bronchoconstriction at 0.28 mM administered through nebulizer for 1 min relative to PGE2
Assay type: functional
For each entry below, report its fold change (FC) value.
Give bare numbers.

Structure as smiles	Endpoint value
CCCCC(C)(C)[C@H](O)/C=C/[C@H]1[C@H](O)CC(=O)[C@@H]1C/C=C\CCCC(=O)O	41
CCCCC[C@H](O)/C=C/[C@H]1[C@H](O)CC(=O)[C@@H]1C/C=C\CCCC(=O)NS(=O)(=O)c1ccccc1	28
CCCCC[C@H](O)/C=C/[C@H]1[C@H](O)CC(=O)[C@@H]1C/C=C\CCCC(N)=O	28

Now consider the entry below.
**Query** Entry CCCCC[C@H](O)/C=C/[C@H]1[C@H](O)CC(=O)[C@@H]1C/C=C\CCCc1nnn[nH]1 needs its fold change (FC) filled in; supply it.
**Result** 65

* * *

Tested on: Mus musculus
Experiment: Induction of diarrheal activity in conscious mouse at 0.1 to 3 mg/kg, iv administered for 30 mins relative to PGE2
Format: organism-based
Set-up: dose 0.1-3 mg/kg, route intravenous
Experimental setup: in vivo, 0.5 h
Labelling: fold change (FC) reported below 50 becomes true; at or above becomes false.

Take a look at these entries with their results.
Structure as smiles	Tested system	Assigned category
CCCCC[C@H](O)/C=C/[C@H]1[C@H](O)CC(=O)[C@@H]1C/C=C\CCCC(=O)NS(C)(=O)=O	Mus musculus	true
CCCCC[C@H](O)/C=C/[C@@H]1[C@@H](C/C=C\CCCC(N)=O)[C@@H](O)C[C@H]1O	Mus musculus	true
CCCCC[C@H](O)/C=C/[C@H]1[C@H](O)CC(=O)[C@@H]1C/C=C\CCCC(=O)NS(=O)(=O)c1ccccc1	Mus musculus	true
CCCCC[C@H](O)/C=C/[C@H]1[C@H](O)CC(=O)[C@@H]1C/C=C\CCCC(=O)NC(C)=O	Mus musculus	false
CCCCC[C@H](O)/C=C/[C@@H]1[C@@H](C/C=C\CCCc2nnn[nH]2)[C@@H](O)C[C@H]1O	Mus musculus	true

**Query** Report whether reported fold change (FC) is lower than 50 (strictly) for CCCCC(C)(C)[C@H](O)/C=C/[C@H]1[C@H](O)CC(=O)[C@@H]1C/C=C\CCCC(=O)NS(C)(=O)=O
**Result** false

**Query** Threshold test, fold change (FC) < 50: CCCCC[C@H](O)/C=C/[C@@H]1[C@@H](C/C=C\CCNC(=O)NC(C)=O)[C@@H](O)C[C@H]1O
**Result** true
